List of MIC tested on Escherichia coli IFO 12734.
Numbers only, in µg/mL.

>  <molecule>
CCOc1c(N2CCN(C(C)C)CC2)ccc2nc3c4c5c6c(C)c(O)c4c(=O)c(c-3oc12)NC(=O)C(C)=CC=CC(C)C(O)C(C)C(O)C(C)C(OC(C)=O)C(C)C(OC)C=COC(C)(O6)C5=O (stereo not drawn)

>  <MIC, µg/mL>
5

$$$$

Proceeding to the next molecule to report its MIC.
Entry under test: CCN1CCN(c2ccc3nc4c5c6c7c(C)c(O)c5c(=O)c(c-4oc3c2OC(C)C)NC(=O)C(C)=CC=CC(C)C(O)C(C)C(O)C(C)C(OC(C)=O)C(C)C(OC)C=COC(C)(O7)C6=O)CC1 (stereo not drawn) . Its MIC was 5

====

List of MIC tested on Bacillus subtilis IFO 3134.
Answers are plain numbers, in µg/mL.

Study these solved cases before continuing.
>  <molecule>
CCCOc1c(N2CCN(CC(C)C)CC2)ccc2nc3c4c5c6c(C)c(O)c4c(=O)c(c-3oc12)NC(=O)C(C)=CC=CC(C)C(O)C(C)C(O)C(C)C(OC(C)=O)C(C)C(OC)C=COC(C)(O6)C5=O (stereo not drawn)

>  <data_value>
0.16

$$$$
>  <molecule>
COc1c(N2CCN(CC(C)C)CC2)cc(C)c2nc3c4c5c6c(C)c(O)c4c(=O)c(c-3oc12)NC(=O)C(C)=CC=CC(C)C(O)C(C)C(O)C(C)C(OC(C)=O)C(C)C(OC)C=COC(C)(O6)C5=O (stereo not drawn)

>  <data_value>
0.04

$$$$

Parameters: items (list). Returns: MIC for each item.
1. CCCOc1c(N2CCCC2)ccc2nc3c4c5c6c(C)c(O)c4c(=O)c(c-3oc12)NC(=O)C(C)=CC=CC(C)C(O)C(C)C(O)C(C)C(OC(C)=O)C(C)C(OC)C=COC(C)(O6)C5=O (stereo not drawn)
2. COC1C=COC2(C)Oc3c(C)c(O)c4c(=O)c(c5oc6c(OC(C)C)c(N7CCN(CC(C)C)CC7)ccc6nc-5c4c3C2=O)NC(=O)C(C)=CC=CC(C)C(O)C(C)C(O)C(C)C(OC(C)=O)C1C (stereo not drawn)

Result:
0.08
0.16

Lab entry: Bacillus subtilis IFO 3134 assay, molecule COc1c(N2CCN(CC(C)C)CC2)ccc2nc3c4c5c6c(C)c(O)c4c(=O)c(c-3oc12)NC(=O)C(C)=CC=CC(C)C(O)C(C)C(O)C(C)C(OC(C)=O)C(C)C(OC)C=COC(C)(O6)C5=O (stereo not drawn) , MIC = 0.04

====

Consider the following compounds; for each one, report its MIC.
Test system: Bacillus subtilis IFO 3134
Assay: Antibacterial activity, standard method of Japan Society of Chemotherapy (Table 2)
Format: cell-based
Conditions: IFO3134, read-out: Minimal inhibitory concentration

Study these solved cases before continuing.
>  <compound>
COC1C=COC2(C)Oc3c(C)c(O)c4c(=O)c(c5oc6c(OC(C)C)c(N7CCCC7)ccc6nc-5c4c3C2=O)NC(=O)C(C)=CC=CC(C)C(O)C(C)C(O)C(C)C(OC(C)=O)C1C (stereo not drawn) [Derivative No. 11]

>  <readout>
MIC

>  <data_value>
0.08 µg/mL

$$$$
>  <compound>
CCOc1c(N2CCN(CC(C)C)CC2)ccc2nc3c4c5c6c(C)c(O)c4c(=O)c(c-3oc12)NC(=O)C(C)=CC=CC(C)C(O)C(C)C(O)C(C)C(OC(C)=O)C(C)C(OC)C=COC(C)(O6)C5=O (stereo not drawn) [Derivative No. 8]

>  <readout>
MIC

>  <data_value>
≤ 0.02 µg/mL

$$$$

Entry under test: CCOc1c(N2CCN(CC)CC2)ccc2nc3c4c5c6c(C)c(O)c4c(=O)c(c-3oc12)NC(=O)C(C)=CC=CC(C)C(O)C(C)C(O)C(C)C(OC(C)=O)C(C)C(OC)C=COC(C)(O6)C5=O (stereo not drawn) [Derivative No. 6] . Its MIC was ≤ 0.02 µg/mL

Data origin, for the record: patent US4965261A
